// merged dataset of Ki values, system = Glucocorticoid receptor (Homo sapiens, UniProt P04150), multiple refs
Sequence (P04150 whole entry): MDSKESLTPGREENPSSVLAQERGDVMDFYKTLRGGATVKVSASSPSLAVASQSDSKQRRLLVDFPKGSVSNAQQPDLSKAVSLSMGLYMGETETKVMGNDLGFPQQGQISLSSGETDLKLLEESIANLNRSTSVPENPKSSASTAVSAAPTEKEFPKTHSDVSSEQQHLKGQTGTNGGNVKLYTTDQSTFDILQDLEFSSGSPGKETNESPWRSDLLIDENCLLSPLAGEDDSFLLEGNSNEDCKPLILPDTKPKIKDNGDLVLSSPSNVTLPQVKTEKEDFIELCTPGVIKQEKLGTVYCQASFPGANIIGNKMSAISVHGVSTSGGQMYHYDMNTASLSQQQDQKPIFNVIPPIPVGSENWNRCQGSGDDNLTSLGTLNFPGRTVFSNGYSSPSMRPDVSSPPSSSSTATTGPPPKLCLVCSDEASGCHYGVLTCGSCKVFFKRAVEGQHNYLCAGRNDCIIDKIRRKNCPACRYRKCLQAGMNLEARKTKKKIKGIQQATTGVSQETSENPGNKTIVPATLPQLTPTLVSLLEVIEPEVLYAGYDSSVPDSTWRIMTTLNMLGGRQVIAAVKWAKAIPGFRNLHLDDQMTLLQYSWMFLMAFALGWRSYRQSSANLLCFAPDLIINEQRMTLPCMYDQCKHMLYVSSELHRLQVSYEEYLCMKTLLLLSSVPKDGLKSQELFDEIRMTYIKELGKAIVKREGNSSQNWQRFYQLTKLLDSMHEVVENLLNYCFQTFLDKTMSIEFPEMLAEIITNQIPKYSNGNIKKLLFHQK
REPORTED_ENDPOINT: Ki

INSERT INTO results (molecule, tgt, result) VALUES
  ('CNS(=O)(=O)c1cccc(C=C2c3ccccc3CCc3ccccc32)c1', 'Glucocorticoid receptor (Homo sapiens, UniProt P04150)', '> 100 nM'),
  ('C[C@]12Cc3cnn(-c4ccc(F)cc4)c3C=C1CC[C@@]2(O)CCc1c(F)cccc1C(N)=O', 'Glucocorticoid receptor (Homo sapiens, UniProt P04150)', '< 1 nM'),
  ('CCNC(=O)CC1COc2cc(F)ccc2N1C(=O)c1ccc2c(c1)NC(=O)CO2 (racemic)', 'Glucocorticoid receptor (Homo sapiens, UniProt P04150)', '> 15800 nM');
